- Test system: MM1R cells
- experiment.description: MTT cell proliferation assay
- Assay type: cell-based
- test.settings: MM.1R, 72-hour MTT
measurement.name: pIC50
The scale used: pIC50 is minus the common logarithm of the concentration in molar units.

pIC50 recorded for this molecule, Nc1ccc(/C=C/C(=O)NCc2cc3cc(-c4ccc(C(=O)N5CCC(F)(F)CC5)cn4)cc(C(F)(F)F)c3o2)cn1 , is 6.72

###

Exercise: state measured IC50 for each of the compounds provided.
- Test system: Z138 cells
- experiment.description: MTT cell proliferation assay
- Assay type: cell-based
- test.settings: Homo sapiens, Z-138, Z138 cells; approximately 64-72 hours incubation; read-out: MTT Assay IC50 Z-138

Record NC(=O)c1ccc(-c2cc(Cl)c3oc(CNC(=O)/C=C/c4ccc(N)nc4)cc3c2)cc1 has Z138 cells IC50 equal to 100 to 5000 nM

Record Nc1ccc(/C=C/C(=O)NCc2cc3cc(-c4ccc(C(=O)NC5(C(F)(F)F)CC5)cn4)cc(C(F)(F)F)c3o2)cn1 has Z138 cells IC50 equal to 100 to 5000 nM

Record Nc1ccc(/C=C/C(=O)NCc2cc3cccc(-c4ccc(C(=O)N5CCOCC5)cc4)c3o2)cn1 has Z138 cells IC50 equal to < 100 nM

Record Nc1ccc(/C=C/C(=O)NCc2cc3cc(-c4ccc(C(=O)N5CCC(Cl)CC5)cn4)cc(C(F)(F)F)c3o2)cn1 has Z138 cells IC50 equal to 100 to 5000 nM
